Target: AMP-activated protein kinase, AMPK (Homo sapiens) (UniProt P54646+O43741+P54619+Q9UGJ0+Q9Y478+Q13131+Q9UGI9)
Assay: AMP-dependent Kinase enzyme assay. An in vitro enzyme assay that detects ADP turnover that is directly proportional to AMPK activity. This uses naive AMPK that is activated during the assay with MK-8722
Assay type: functional
Parameters: scale not given: direction of the effect not stated beside the values
Conditions: 30 µM

Compound	Percent Effect (%)
COC(=O)CC1CCCCN1CC(=O)Nc1ccc(F)cc1Cl (centres undefined)	8.66
CCOc1ccccc1-n1c(C2CC(=O)N(C)C2)n[nH]c1=O (centres undefined)	7.89
CC(c1ncc(-c2ccccc2)o1)N1CCN(C(=O)C(C)(C)C)CC1 (centres undefined)	12.7
O=S(=O)(c1ccccc1N1CC(n2cccn2)C1)C(F)(F)F	16
COc1ccc(OC2CCN(C(=O)c3cnc(C)s3)CC2)cc1	-2.19
Cc1cc(N2CCC3(CCCN(CCO)C3=O)C2)nc2ccccc12 (centres undefined)	9.84
Cc1cnn(C2CN(CCOc3cccc(C#N)c3)C2)c1	3.61
CC(C)c1ccccc1NC(=O)N1C[C@@H]2CC[C@H](C1)N(C)C2=O	-7.67
Cc1n[nH]c(C)c1CCC(=O)N1CCc2c(nc[nH]c2=O)C1	-0.287
CCOc1ccc2cc(C(=O)NCCNc3ccc(C)nn3)[nH]c2c1	6.22
Cc1cc(F)ccc1N1CCCC(NC(=O)CCc2ccncc2)C1 (centres undefined)	14.9
CCOc1ccccc1CCC(=O)Nc1c(C)nn(C)c1C	8.9
COCCN(C)C(=O)NCCc1coc(-c2ccc(C)cc2)n1	-3.83
COC(=O)NCC(=O)NC1(C)CCc2ccccc2C1 (centres undefined)	12.8
Cc1cnc(CCNC(=O)NCCc2ccc(O)cc2)s1	38.4
COc1ccc(CCn2cnc(C#N)n2)cc1	-6.21
Cc1n[nH]c(C)c1CCc1n[nH]c(=O)n1Cc1cccs1	-7.17
Cc1nc(CNC(=O)c2cc(COc3cccc(F)c3)[nH]n2)n[nH]1	0.77
COc1c(C)cnc(CN2CCCC2c2noc(C3CC3)n2)c1C (centres undefined)	-14.3
CCC(C(=O)N(Cc1ccccn1)C1CCCCC1)n1cccn1 (centres undefined)	1.8
c1ccc(OCCNC2=NCCCN2)cc1	-8.51
Cc1cc(C2CCCN(CC(=O)N3CCc4ccccc43)C2)n[nH]1 (centres undefined)	-5.04
CCc1nnc2n1CCN(C(=O)C(C)Oc1ccc(C#N)cc1)C2 (centres undefined)	10.6
Oc1ccc(Br)c(CNc2cccc(-c3nnc[nH]3)c2)c1	23.8
Cc1occc1C(=O)Nc1ccc(C(=O)NC[C@H]2CCCN2)cc1	-9.02
Cc1cc(NCCc2c(C)n[nH]c2C)nc(-c2cccnc2)n1	-4.66
OCCc1cc(C2CCCN2c2ncccn2)n[nH]1 (centres undefined)	11.9
COCc1c(Br)cccc1NC(=O)N(C)CCO	-5.13
COC(CNC(=O)CNC(=O)c1ccccc1)c1cccc(Cl)c1 (centres undefined)	4.84
Cn1c(N2CC[C@H](O)C2)nc2cc(C(N)=O)ccc21	21.4
Cc1nnc(CN(C)CC(=O)N2CCCN(C3CCCC3)CC2)n1C	-11.4
O=C1NCCCCC1NC(=O)N1CCCc2ccccc21 (centres undefined)	-0.938
CC(C)CN(Cc1ccccn1)Cc1ccccc1OCC(=O)O	-7.24
CSCC(C)(O)CNS(=O)(=O)c1cccc(Cl)c1 (centres undefined)	-5.75
CN(C)S(=O)(=O)c1ccc(=O)n(CC2CCCO2)c1 (centres undefined)	20.4
CC(C)c1cc(C(=O)NCCc2nc(-c3cccnc3)n[nH]2)[nH]n1	57.4
Cc1cc(NC(C)c2nnn[nH]2)n2nc(C)c(C)c2n1 (centres undefined)	20.6
CC(NC(=O)C(C)(C)C)c1cc(O)nc(-c2cccnc2)n1 (centres undefined)	6.37
O=C1NCCN(Cc2ccccc2)C1CC(=O)N1CCc2n[nH]cc2C1 (centres undefined)	-20.4
CN(C)C(C(=O)N1CCN(CCn2cccc2)CC1)c1cccc(F)c1 (centres undefined)	-11.9
O=C(Cn1nc2ccccc2n1)N1CCCC(O)(CN2CCCC2)C1 (centres undefined)	-2.27
CCN1CCC(NC(=O)N(C)Cc2csc3ccccc23)CC1	-1.48
O=C(CC1COCCN1)N1CCC(N2CCc3ccccc3C2)CC1 (centres undefined)	-4.72
CNC(=O)C(c1cccc(Cl)c1)C(C)C (centres undefined)	-6.65
Cc1ncsc1C(=O)OCCN1CCCCCC1=O	5.73
COCCC(=O)N(C)CCC1=CCN(C)CC1	-12.9
COC(=O)c1ccc2c(c1)CCCN2S(=O)(=O)c1cn(C)c(C)n1	-5.88
Cc1cc(C)cc(OCCN(C)C2CCOC2=O)c1 (centres undefined)	-0.216
COc1cccc(CN(C)C(C)C(=O)Nc2nc(C)c(C)s2)c1 (centres undefined)	5.13
